Source of measurements: ChEMBL document CHEMBL1128022

Entries and their Ki values follow.
# experimental target: Interstitial collagenase (Homo sapiens)
# Sequence (P03956 whole entry): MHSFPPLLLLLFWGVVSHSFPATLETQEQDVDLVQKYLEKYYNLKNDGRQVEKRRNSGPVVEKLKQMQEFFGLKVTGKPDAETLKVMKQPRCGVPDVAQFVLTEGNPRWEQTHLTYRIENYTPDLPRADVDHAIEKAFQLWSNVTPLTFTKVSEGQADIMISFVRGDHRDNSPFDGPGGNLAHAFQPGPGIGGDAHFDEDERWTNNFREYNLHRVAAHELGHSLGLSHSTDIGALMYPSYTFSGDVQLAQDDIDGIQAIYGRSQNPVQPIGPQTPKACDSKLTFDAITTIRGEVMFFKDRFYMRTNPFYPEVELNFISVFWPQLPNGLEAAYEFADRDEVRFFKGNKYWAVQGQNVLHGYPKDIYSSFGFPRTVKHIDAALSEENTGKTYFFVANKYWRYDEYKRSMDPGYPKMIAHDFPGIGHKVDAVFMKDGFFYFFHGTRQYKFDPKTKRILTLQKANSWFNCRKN
Record the value in µM, omitting the unit from your answer.

Recorded results for 3 compounds are shown here.
>  <compound>
NS(=O)(=O)c1ccc(CCNC(=O)[C@H](CC2CCCCC2)NC(=O)[C@H](CCCc2ccccc2)CC(=O)O)cc1

>  <Ki [µM]>
40.2

$$$$
>  <compound>
NC(=O)[C@H](CC1CCCCC1)NC(=O)[C@H](CCCc1ccccc1)CC(=O)O

>  <Ki [µM]>
100

$$$$
>  <compound>
NS(=O)(=O)c1ccc(CCNC(=O)[C@H](CC2CCCCC2)NC(=O)[C@H](CCCc2ccc(Cl)cc2)CC(=O)O)cc1

>  <Ki [µM]>
55

$$$$

Entry `O=C(N[C@@H](CC1CCCCC1)C(=O)NCCN1CCOCC1)[C@H](CCCc1ccccc1)CP(=O)(O)O` : reported Ki = ?
100

Okay, and Cc1ccc(CCC[C@H](CP(=O)(O)O)C(=O)N[C@@H](CC2CCCCC2)C(=O)NCCc2ccccc2)cc1 (stereo in doubt; form 1) ?
100

====

Reported pKi is given for each of the following compounds.
# experimental target: Stromelysin-1 (Homo sapiens, UniProt P08254)
# Sequence (P08254 whole entry): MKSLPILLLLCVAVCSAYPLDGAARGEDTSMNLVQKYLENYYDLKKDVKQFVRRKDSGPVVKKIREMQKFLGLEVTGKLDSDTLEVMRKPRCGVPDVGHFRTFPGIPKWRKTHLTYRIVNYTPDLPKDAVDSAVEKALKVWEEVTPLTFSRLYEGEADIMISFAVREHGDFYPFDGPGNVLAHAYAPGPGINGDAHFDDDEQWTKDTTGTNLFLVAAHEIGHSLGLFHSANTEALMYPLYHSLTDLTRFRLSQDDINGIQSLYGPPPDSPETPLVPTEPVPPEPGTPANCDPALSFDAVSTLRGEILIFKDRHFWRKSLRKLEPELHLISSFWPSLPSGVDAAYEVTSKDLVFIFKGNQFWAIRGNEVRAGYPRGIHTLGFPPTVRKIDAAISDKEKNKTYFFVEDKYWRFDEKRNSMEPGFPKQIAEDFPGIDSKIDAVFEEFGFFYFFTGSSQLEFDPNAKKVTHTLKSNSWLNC
The quantity pKi is defined as the negative base-10 logarithm of the molar concentration.

>  <cpd smiles>
NC(=O)CCCNC(=O)[C@H](CC1CCCCC1)NC(=O)[C@H](CCCc1ccccc1)CC(=O)O

>  <pKi>
5.97

$$$$

Please give the measured pKi for this compound: `COc1ccc(CCC[C@H](CC(=O)O)C(=O)N[C@@H](CC2CCCCC2)C(=O)NCCc2ccc(S(N)(=O)=O)cc2)cc1`
5.95

What do we get for `Cc1ccc(CCC[C@H](CC(=O)O)C(=O)N[C@@H](CC2CCCCC2)C(=O)NCCC(=O)O)cc1` ?
6.49

Also need `NS(=O)(=O)c1ccc(CCNC(=O)[C@H](CC2CCCCC2)NC(=O)[C@H](CCCc2ccccc2)CC(=O)O)cc1` , thanks.
6.02

Another compound to check: `NS(=O)(=O)c1ccc(CCNC(=O)[C@H](CC2CCCCC2)NC(=O)[C@H](CCCc2ccc(Cl)cc2)CC(=O)O)cc1`
6.45

====

# experimental target: 72 kDa type IV collagenase (Homo sapiens, UniProt P08253)
# Sequence (P08253 whole entry): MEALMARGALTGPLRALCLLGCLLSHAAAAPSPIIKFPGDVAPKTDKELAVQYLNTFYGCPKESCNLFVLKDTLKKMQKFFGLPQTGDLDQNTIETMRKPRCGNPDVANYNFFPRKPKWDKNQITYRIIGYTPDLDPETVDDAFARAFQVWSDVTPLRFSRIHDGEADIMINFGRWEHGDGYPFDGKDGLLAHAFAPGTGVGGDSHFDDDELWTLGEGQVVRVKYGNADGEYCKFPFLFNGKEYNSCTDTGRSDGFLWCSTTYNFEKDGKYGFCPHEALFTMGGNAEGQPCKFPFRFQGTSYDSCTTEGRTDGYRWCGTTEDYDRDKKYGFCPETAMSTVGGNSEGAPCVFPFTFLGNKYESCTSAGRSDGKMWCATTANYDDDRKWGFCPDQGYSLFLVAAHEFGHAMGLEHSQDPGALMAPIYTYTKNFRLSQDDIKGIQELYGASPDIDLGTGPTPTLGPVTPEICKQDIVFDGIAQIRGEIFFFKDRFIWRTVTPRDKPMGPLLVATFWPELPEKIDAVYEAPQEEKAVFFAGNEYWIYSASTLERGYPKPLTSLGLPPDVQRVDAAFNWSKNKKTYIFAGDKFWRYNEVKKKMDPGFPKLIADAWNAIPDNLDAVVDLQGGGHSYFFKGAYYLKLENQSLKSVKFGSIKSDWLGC
# test method notes: Inhibition of the Gelatinase-A enzyme was determined from purified NSO cells.
readout type: pKi
The quantity pKi is defined as the negative base-10 logarithm of the molar concentration.

>  <cpd smiles>
CC(C)Cc1ccc(CCC[C@H](CC(=O)O)C(=O)N[C@@H](CC2CCCCC2)C(=O)NCCc2ccccc2)cc1

>  <pKi>
6.80

$$$$
>  <cpd smiles>
NS(=O)(=O)c1ccc(CCNC(=O)[C@H](CC2CCCCC2)NC(=O)[C@H](CCCc2ccc(Cl)cc2)CC(=O)O)cc1

>  <pKi>
8.99

$$$$
>  <cpd smiles>
O=C(N[C@@H](CC1CCCCC1)C(=O)NCCN1CCOCC1)[C@H](CCCc1ccccc1)CP(=O)(O)O

>  <pKi>
6.09

$$$$

Reported pKi, molecule `Cc1ccc(CCC[C@H](CC(=O)O)C(=O)N[C@@H](CC2CCCCC2)C(=O)NCCc2ccccc2)cc1` : ____
9.00
